Origin of measurements: paper PMC7367925

- CONDITION_PARAMETERS: pooled test systems of the NAM panel (all test methods)
Recorded viability for the following compounds

{"COMPOUND": "Cc1noc(NS(=O)(=O)c2ccc(N)cc2)c1C", "viability / %": 100}
{"COMPOUND": "CCCCNC(=O)NS(=O)(=O)c1ccc(C)cc1 [Tolbutamide]", "viability / %": 100}
{"COMPOUND": "CCOC(=O)C(C)(C)Oc1ccc(Cl)cc1 [Clofibrate]", "viability / %": 100}

* * *

- Tested on: U-2 OS cells
- PROCEDURE_DETAILS: Cytotox CALUX
- CONDITION_PARAMETERS: 24 h exposure, lowest effect level PC20, means from 3 assay runs
Reported PoD cytotoxicity values are given for each entry in this list.
MEASURE: PoD cytotoxicity

{"COMPOUND": "[Cl][Hg][Cl] [Mercury chloride]", "EXPERIMENTAL_VALUE": "4.7 -log(M)"}
{"COMPOUND": "O=P(Oc1ccccc1)(Oc1ccccc1)Oc1ccccc1 [Triphenyl phosphate]", "EXPERIMENTAL_VALUE": "4.0 -log(M)"}
{"COMPOUND": "C=C(C)[C@H]1Cc2c(ccc3c2O[C@@H]2COc4cc(OC)c(OC)cc4[C@@H]2C3=O)O1", "EXPERIMENTAL_VALUE": "5.7 -log(M)"}
{"COMPOUND": "CC(C)(C)C(O)(CCc1ccc(Cl)cc1)Cn1cncn1 (stereo not drawn)", "EXPERIMENTAL_VALUE": "4.3 -log(M)"}
{"COMPOUND": "COc1cc2c(c(OC)c1OC)-c1ccc(OC)c(=O)cc1[C@@H](NC(C)=O)CC2", "EXPERIMENTAL_VALUE": "7.3 -log(M)"}
{"COMPOUND": "Oc1c(Cl)cc(Cl)c(Cl)c1Cc1c(O)c(Cl)cc(Cl)c1Cl", "EXPERIMENTAL_VALUE": "5.5 -log(M)"}
